read-out: X-box binding protein 1 (XBP1), XBP1 (gene 7494); assay: LTEA_HepaRG_XBP1: Life Technologies and Expression Analysis (LTEA) Assay for X-box binding protein 1 (XBP1) using HepaRG (AID 2283540); conditions: mRNA level, 48 h; actives raise or lower the signal
The source made the active and inactive calls. The calls were made as follows: active = hit-call score of the fitted dose curve at least 0.9, where 1 is the maximum; inactive = score below 0.9.
Answer with one of the outcomes given here: t = active, f = inactive

| compound | classification |
| --- | --- |
| CCNP(=S)(OC)O/C(C)=C/C(=O)OC(C)C (stereo not drawn) | f |
| CC1(C)CON(Cc2ccccc2Cl)C1=O | f |
| O=C1C2CC=CCC2C(=O)N1SC(Cl)(Cl)Cl (stereo not drawn) | f |
| CCCN(CC)CC1COC2(CCC(C(C)(C)C)CC2)O1 (stereo not drawn) | f |
| COc1cc(Cl)c(OC)cc1Cl | f |

For this compound, state the assay outcome: CO/N=C(/C1=NOCCO1)c1ccccc1Oc1ncnc(Oc2ccccc2Cl)c1F
f

So what was the verdict on CCOP(=O)(OCC)Oc1nc(Cl)c(Cl)cc1Cl in this test?
t

State the result this test recorded for OC(c1ccc(Cl)cc1)(c1ccc(Cl)cc1)C(Cl)(Cl)Cl .
t

Outcome? CCCCC(C#N)(Cn1cncn1)c1ccc(Cl)cc1 (stereo not drawn)
f

Look up the recorded call for CCOc1nc(F)cc2nc(S(=O)(=O)Nc3c(Cl)cccc3Cl)nn12 in this test.
f

How did this test come out for CC(C)Oc1cccc(NC(=O)c2ccccc2C(F)(F)F)c1 ?
f

Would you mind telling me which call this test gave CCC(C)n1c(=O)[nH]c(C)c(Br)c1=O (stereo not drawn) ?
t

Answer briefly: the call reported for Cc1cc(C)nc(Nc2ccccc2)n1 in this assay.
f

* * *

assay: CCTE_Shafer_MEA_dev_AB: CCTE's Alamar Blue Assay for Cytotoxicity in the Neural Network Formation Assay, Shafer Lab (AID 2284083);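 also: resazurin reduction fluorescence as viability of cultured neurons; twelve days of exposure from plating with re-dosing on DIV 5 and 9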
Results filed as inconclusive are left out. Calls of active or inactive are those of the source. Rule for the calls: active = hit-call score of the fitted dose curve at least 0.9, where 1 is the maximum; inconclusive = response in the unintended direction; inactive = score below 0.9.
Assign a class; possible classes are y for active, n for inactive

Entry CCN(CC)c1nc(C)cc(OP(=S)(OC)OC)n1 : call = ?
y

Hi team, can someone confirm the assay call for CCSC(=O)N1CCCCCC1 ?
n

Each molecule tested received a call. Report the one for C=C(C)CN(CC)c1c([N+](=O)[O-])cc(C(F)(F)F)cc1[N+](=O)[O-] .
y

* * *

read-out: xenobiotic metabolism (CYP1A2), CYP1A2 (gene 1544); assay: CLD_CYP1A2_6hr: CellzDirect (CLD) Gene Expression Assay for xenobiotic metabolism (CYP1A2) at 6 hours (AID 2283663)
Results filed as inconclusive are left out. The source made the active and inactive calls. Rule for the calls: active = hit-call score of the fitted dose curve at least 0.9, where 1 is the maximum; inconclusive = response in the unintended direction; inactive = score below 0.9.
// classify into active, inactive

| compound | classification |
| --- | --- |
| Cc1nc(N(C)C)nc(OC(=O)N(C)C)c1C | active |
| COC(=O)NC(=S)Nc1ccccc1NC(=S)NC(=O)OC | inactive |
| CCOP(=O)(OCC)Oc1nc(Cl)c(Cl)cc1Cl | active |
| Cc1ccc(N=CN(C)C=Nc2ccc(C)cc2C)c(C)c1 | inactive |
| CCOc1nc(C(Cl)(Cl)Cl)ns1 | inactive |
| COP(=S)(OC)SCn1nnc2ccccc2c1=O | active |
| CCOP(=S)(OCC)Oc1nc(Cl)n(C(C)C)n1 | active |

Here is another compound to look at.
Can you look up the reported call for COCC(=O)N(c1c(C)cccc1C)C(C)C(=O)OC (stereo not drawn) for me?
inactive

Ref: PubChem BioAssay (EPA / NIEHS)
